Just for reference, the supplement of paper PMC9112550 is where these values come from.

Parameter: shrunken log2 fold change. Scope: all listed entries.
# Tested on: Escherichia coli TOP10;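 also: peptides expressed intracellularly from a pBAD plasmid library in pooled LB shake-flask culture, induced with 0.3% L-arabinose, DNA abundance read by NGS, three biological replicates, DESeq2 with apeglm shrinkage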
# Test Description: shrunken log2 fold change of peptide-encoding DNA abundance (4.5 h post-induction vs induction); higher = less antimicrobial activity (less host growth inhibition)
# Assay Context: time post-induction: 4.5 h; library: site-saturation at positions 5, 18, 19, 20
Metric: shrunken log2 fold change

Sequence Data: RRIRQRPPRLPRPRPRPFMCPRP
Metric: shrunken log2 fold change
Quantitative Readout: -0.371
--
Sequence Data: RRIRPRPPRLPRPRPRPSEFPRP
Metric: shrunken log2 fold change
Quantitative Readout: -0.0966
--
Sequence Data: RRIRSRPPRLPRPRPRPLKSPRP
Metric: shrunken log2 fold change
Quantitative Readout: 0.0254
--
Sequence Data: RRIRTRPPRLPRPRPRPNYDPRP
Metric: shrunken log2 fold change
Quantitative Readout: -0.493
--
Sequence Data: RRIRGRPPRLPRPRPRPFAEPRP
Metric: shrunken log2 fold change
Quantitative Readout: 2.46
--
Sequence Data: RRIRCRPPRLPRPRPRPRQEPRP
Metric: shrunken log2 fold change
Quantitative Readout: 0.121
--
Sequence Data: RRIRMRPPRLPRPRPRPHLKPRP
Metric: shrunken log2 fold change
Quantitative Readout: 0.253
--
Sequence Data: RRIRDRPPRLPRPRPRPHPQPRP
Metric: shrunken log2 fold change
Quantitative Readout: 0.256
--
Sequence Data: RRIRVRPPRLPRPRPRPVKCPRP
Metric: shrunken log2 fold change
Quantitative Readout: -0.163
--
Sequence Data: RRIRYRPPRLPRPRPRPRVPPRP
Metric: shrunken log2 fold change
Quantitative Readout: -0.0432
--
Sequence Data: RRIRTRPPRLPRPRPRPPKTPRP
Metric: shrunken log2 fold change
Quantitative Readout: 0.142
--
Sequence Data: RRIRHRPPRLPRPRPRPWWAPRP
Metric: shrunken log2 fold change
Quantitative Readout: -0.162
--
Sequence Data: RRIRSRPPRLPRPRPRPIKEPRP
Metric: shrunken log2 fold change
Quantitative Readout: -0.0466
--
Sequence Data: RRIRYRPPRLPRPRPRPLEIPRP
Metric: shrunken log2 fold change
Quantitative Readout: -0.00674
--
Sequence Data: RRIRYRPPRLPRPRPRPVRFPRP
Metric: shrunken log2 fold change
Quantitative Readout: -0.0685
--
Sequence Data: RRIRYRPPRLPRPRPRPQRFPRP
Metric: shrunken log2 fold change
Quantitative Readout: -0.0259
--
Sequence Data: RRIRIRPPRLPRPRPRPVAHPRP
Metric: shrunken log2 fold change
Quantitative Readout: 0.0168
--
Sequence Data: RRIRNRPPRLPRPRPRPATQPRP
Metric: shrunken log2 fold change
Quantitative Readout: -0.0108
--
Sequence Data: RRIRRRPPRLPRPRPRPTIWPRP
Metric: shrunken log2 fold change
Quantitative Readout: 0.251
--
Sequence Data: RRIRDRPPRLPRPRPRPYTKPRP
Metric: shrunken log2 fold change
Quantitative Readout: -1.06
--
Sequence Data: RRIRFRPPRLPRPRPRPVDRPRP
Metric: shrunken log2 fold change
Quantitative Readout: 0.123
--
Sequence Data: RRIRLRPPRLPRPRPRPFSVPRP
Metric: shrunken log2 fold change
Quantitative Readout: -0.323
--
Sequence Data: RRIRPRPPRLPRPRPRPDPQPRP
Metric: shrunken log2 fold change
Quantitative Readout: -0.0397
--
Sequence Data: RRIRRRPPRLPRPRPRPQKWPRP
Metric: shrunken log2 fold change
Quantitative Readout: 0.136
--
Sequence Data: RRIRLRPPRLPRPRPRPCYTPRP
Metric: shrunken log2 fold change
Quantitative Readout: -0.525
--
Sequence Data: RRIRARPPRLPRPRPRPHCAPRP
Metric: shrunken log2 fold change
Quantitative Readout: 0.149
--
Sequence Data: RRIRNRPPRLPRPRPRPDLSPRP
Metric: shrunken log2 fold change
Quantitative Readout: -0.0537
--
Sequence Data: RRIRRRPPRLPRPRPRPCYIPRP
Metric: shrunken log2 fold change
Quantitative Readout: -0.205
--
Sequence Data: RRIRVRPPRLPRPRPRPFTPPRP
Metric: shrunken log2 fold change
Quantitative Readout: -0.412
--
Sequence Data: RRIRARPPRLPRPRPRPDTYPRP
Metric: shrunken log2 fold change
Quantitative Readout: -0.11
--
Sequence Data: RRIRCRPPRLPRPRPRPNAEPRP
Metric: shrunken log2 fold change
Quantitative Readout: 0.118
--
Sequence Data: RRIRPRPPRLPRPRPRPRWDPRP
Metric: shrunken log2 fold change
Quantitative Readout: -0.0161
--
Sequence Data: RRIRHRPPRLPRPRPRPWYAPRP
Metric: shrunken log2 fold change
Quantitative Readout: -0.41
--
Sequence Data: RRIRLRPPRLPRPRPRPYIYPRP
Metric: shrunken log2 fold change
Quantitative Readout: -1.24
--
Sequence Data: RRIRVRPPRLPRPRPRPLLQPRP
Metric: shrunken log2 fold change
Quantitative Readout: 0.0881
--
Sequence Data: RRIRGRPPRLPRPRPRPAIKPRP
Metric: shrunken log2 fold change
Quantitative Readout: 0.534
--
Sequence Data: RRIRHRPPRLPRPRPRPTLQPRP
Metric: shrunken log2 fold change
Quantitative Readout: -0.0103
--
Sequence Data: RRIRVRPPRLPRPRPRPIKAPRP
Metric: shrunken log2 fold change
Quantitative Readout: 0.0466
--
Sequence Data: RRIRDRPPRLPRPRPRPWFMPRP
Metric: shrunken log2 fold change
Quantitative Readout: 0.0254
--
Sequence Data: RRIRPRPPRLPRPRPRPNNTPRP
Metric: shrunken log2 fold change
Quantitative Readout: -0.312
--
Sequence Data: RRIRWRPPRLPRPRPRPDPMPRP
Metric: shrunken log2 fold change
Quantitative Readout: 0.444
--
Sequence Data: RRIRLRPPRLPRPRPRPWYIPRP
Metric: shrunken log2 fold change
Quantitative Readout: -0.137
--
Sequence Data: RRIRFRPPRLPRPRPRPFMWPRP
Metric: shrunken log2 fold change
Quantitative Readout: -0.168
